Measured pEC50 by item
molecular target: human FXR (NR1H4) (Homo sapiens (Human), UniProt Q96RI1); assay: Human FXR (NR1H4) Assay (Gal4 promoter driven luciferase reporter, Indigo Bioscience kit); conditions: Human FXR (NR1H4) Assay, potency ranges
Sequence (Q96RI1 whole entry, the tested form may be a part): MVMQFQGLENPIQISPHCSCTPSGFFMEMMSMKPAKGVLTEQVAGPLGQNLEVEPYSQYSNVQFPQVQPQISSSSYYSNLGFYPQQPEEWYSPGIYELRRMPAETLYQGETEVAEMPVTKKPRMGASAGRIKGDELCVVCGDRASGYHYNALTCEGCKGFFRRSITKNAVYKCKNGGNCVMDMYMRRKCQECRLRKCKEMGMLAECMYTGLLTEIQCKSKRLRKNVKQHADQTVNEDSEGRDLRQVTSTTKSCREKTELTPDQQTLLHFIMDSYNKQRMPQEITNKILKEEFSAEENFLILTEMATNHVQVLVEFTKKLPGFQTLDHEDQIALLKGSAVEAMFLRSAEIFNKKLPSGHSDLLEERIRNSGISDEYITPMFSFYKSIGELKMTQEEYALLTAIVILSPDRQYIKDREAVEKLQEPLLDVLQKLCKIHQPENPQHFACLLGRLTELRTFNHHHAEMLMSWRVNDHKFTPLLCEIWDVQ
pEC50: −log10 of the molar value.

Measured pEC50, CC[C@H]1[C@@H](O)[C@@H]2[C@H](CC[C@]3(C)[C@@H]([C@H](C)CCCOC(=O)N(C)OC)CC[C@@H]23)[C@@]2(C)CC[C@@H](O)C[C@@H]12 : 5.00 to 6.00

Quick note, pEC50 for CC[C@H]1[C@@H](O)[C@@H]2[C@H](CC[C@]3(C)[C@@H]([C@H](C)COC(=O)NS(=O)(=O)c4ccc(N5CCCC5)nc4)CC[C@@H]23)[C@@]2(C)CC[C@@H](O)C[C@@H]12 landed at > 7.00

Form: molecule = CC[C@H]1[C@@H](O)[C@@H]2[C@H](CC[C@]3(C)[C@@H]([C@H](C)CCOC(=O)NS(=O)(=O)c4ccc(C(C)(C)CO)cc4)CC[C@@H]23)[C@@]2(C)CC[C@@H](O)C[C@@H]12 ; pEC50 = > 7.00

Reported pEC50 of CC[C@H]1[C@@H](O)[C@@H]2[C@H](CC[C@]3(C)[C@@H]([C@H](C)CCOC(=O)NS(=O)(=O)N4CCCCC4)CC[C@@H]23)[C@@]2(C)CC[C@@H](O)C[C@@H]12 : > 7.00
